- SUBJECT_OF_TEST: human cMET (MET, c-Met, HGF receptor) on cells (human) (UniProt P08581)
- Sequence (P08581 25-1390): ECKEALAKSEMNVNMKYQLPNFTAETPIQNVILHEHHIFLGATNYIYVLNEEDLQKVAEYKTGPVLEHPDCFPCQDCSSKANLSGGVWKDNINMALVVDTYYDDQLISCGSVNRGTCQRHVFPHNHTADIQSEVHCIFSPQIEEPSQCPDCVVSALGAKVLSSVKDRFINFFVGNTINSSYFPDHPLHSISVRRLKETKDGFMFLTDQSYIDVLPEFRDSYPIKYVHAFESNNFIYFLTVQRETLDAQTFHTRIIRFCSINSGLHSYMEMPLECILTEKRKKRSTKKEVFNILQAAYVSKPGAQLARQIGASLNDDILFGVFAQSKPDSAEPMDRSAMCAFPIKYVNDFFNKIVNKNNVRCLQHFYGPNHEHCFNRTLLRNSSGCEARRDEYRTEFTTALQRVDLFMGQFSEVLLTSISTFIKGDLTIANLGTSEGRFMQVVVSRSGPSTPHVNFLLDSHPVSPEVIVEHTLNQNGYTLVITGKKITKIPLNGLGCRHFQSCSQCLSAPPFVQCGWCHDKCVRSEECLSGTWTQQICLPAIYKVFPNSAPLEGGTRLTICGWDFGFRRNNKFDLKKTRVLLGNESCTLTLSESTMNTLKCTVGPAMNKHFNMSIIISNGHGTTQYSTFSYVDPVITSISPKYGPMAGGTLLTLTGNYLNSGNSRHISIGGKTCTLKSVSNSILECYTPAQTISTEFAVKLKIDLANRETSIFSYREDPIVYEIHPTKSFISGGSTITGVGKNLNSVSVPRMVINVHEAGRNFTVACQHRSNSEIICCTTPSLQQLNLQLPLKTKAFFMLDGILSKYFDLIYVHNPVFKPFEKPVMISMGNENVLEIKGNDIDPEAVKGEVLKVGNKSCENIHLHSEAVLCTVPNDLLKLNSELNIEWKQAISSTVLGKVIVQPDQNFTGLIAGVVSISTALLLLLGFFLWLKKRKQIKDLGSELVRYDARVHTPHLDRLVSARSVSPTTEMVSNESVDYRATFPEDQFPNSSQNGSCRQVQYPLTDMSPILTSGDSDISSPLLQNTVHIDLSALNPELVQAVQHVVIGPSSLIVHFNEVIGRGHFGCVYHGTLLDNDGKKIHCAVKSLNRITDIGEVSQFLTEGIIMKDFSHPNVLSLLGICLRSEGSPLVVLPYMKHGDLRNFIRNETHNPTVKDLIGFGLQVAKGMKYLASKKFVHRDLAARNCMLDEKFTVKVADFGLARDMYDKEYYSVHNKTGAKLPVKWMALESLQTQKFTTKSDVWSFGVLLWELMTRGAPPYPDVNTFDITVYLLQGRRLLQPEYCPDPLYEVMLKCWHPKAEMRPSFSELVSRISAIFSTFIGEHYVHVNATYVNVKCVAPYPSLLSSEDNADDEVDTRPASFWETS
- EXPERIMENT: flow cytometry (FACS) on EBC-1 cells endogenously expressing human cMet, fluorescent secondary antibody
READOUT_NAME: EC50 (read off the curve) (nM)
# unit: nM | format: bare number

[
  {
    "BINDER": "hucMet27Gv1.2-sSPDB-DM4 (antibody, human IgG1, kappa, V domains shown, sSPDB-DM4 conjugate; preparation of this one not described) VH: EVQLVESGGGLVQPGGSLRLSCAASGFTFSSYDMSWVRQAPGKGLELVATINSNGVSIYYPDSVKGRFTISRDIAKNSLYLQMNSLRAEDTAVYYCAREEITTEMDYWGQGTLVTVSS VL: EIVLTQSPATLSLSPGERATLSCRASESVDSYGNSFIHWYQQKPGQAPRLLIYRASNLESGIPARFSGSGSGTDFTLTISSLEPEDFAVYYCQQSNEEPLTFGQGTKVELKR",
    "MEASURE_UNIT": "nM",
    "EC50 (read off the curve)": 0.5
  },
  {
    "BINDER": "hucMet22Gv2.2-sSPDB-DM4 (antibody, human IgG1, kappa, V domains shown, lysines linked to sSPDB-DM4, on average 3-4 DM4 per antibody) VH: QVQLVQSGAEVKKPGASVKVSCKASGYTFTDYNMDWVRQAPGQRLEWIGDLNPNNGATIYNQKFKGRATLTVDMSASTAYMELSSLRSEDTAVYYCARGNYYGNYYYLMDYWGQGTSVTVSS VL: DIQMTQSPSSLSASVGDRVTITCRASENIYSTLAWYQQKPGKAPKLLVYAATNLADGVPSRFSGSGSGTDYTLTISSLQPEDFATYYCQHFWGTPYTFGQGTKVEIKR",
    "MEASURE_UNIT": "nM",
    "EC50 (read off the curve)": 0.2
  }
]

Please examine the following record next.
I would be grateful if you could share the reported EC50 (read off the curve) for hucMet27Gv1.2-DGN549 (antibody, human IgG1, kappa, V domains shown, DGN549 conjugate; linkage site not stated for this antibody) VH: EVQLVESGGGLVQPGGSLRLSCAASGFTFSSYDMSWVRQAPGKGLELVATINSNGVSIYYPDSVKGRFTISRDIAKNSLYLQMNSLRAEDTAVYYCAREEITTEMDYWGQGTLVTVSS VL: EIVLTQSPATLSLSPGERATLSCRASESVDSYGNSFIHWYQQKPGQAPRLLIYRASNLESGIPARFSGSGSGTDFTLTISSLEPEDFAVYYCQQSNEEPLTFGQGTKVELKR .
0.4
